Data provenance: ChEMBL document CHEMBL5126525

Biological target: UniProt:P10275
Sequence (P10275 whole entry): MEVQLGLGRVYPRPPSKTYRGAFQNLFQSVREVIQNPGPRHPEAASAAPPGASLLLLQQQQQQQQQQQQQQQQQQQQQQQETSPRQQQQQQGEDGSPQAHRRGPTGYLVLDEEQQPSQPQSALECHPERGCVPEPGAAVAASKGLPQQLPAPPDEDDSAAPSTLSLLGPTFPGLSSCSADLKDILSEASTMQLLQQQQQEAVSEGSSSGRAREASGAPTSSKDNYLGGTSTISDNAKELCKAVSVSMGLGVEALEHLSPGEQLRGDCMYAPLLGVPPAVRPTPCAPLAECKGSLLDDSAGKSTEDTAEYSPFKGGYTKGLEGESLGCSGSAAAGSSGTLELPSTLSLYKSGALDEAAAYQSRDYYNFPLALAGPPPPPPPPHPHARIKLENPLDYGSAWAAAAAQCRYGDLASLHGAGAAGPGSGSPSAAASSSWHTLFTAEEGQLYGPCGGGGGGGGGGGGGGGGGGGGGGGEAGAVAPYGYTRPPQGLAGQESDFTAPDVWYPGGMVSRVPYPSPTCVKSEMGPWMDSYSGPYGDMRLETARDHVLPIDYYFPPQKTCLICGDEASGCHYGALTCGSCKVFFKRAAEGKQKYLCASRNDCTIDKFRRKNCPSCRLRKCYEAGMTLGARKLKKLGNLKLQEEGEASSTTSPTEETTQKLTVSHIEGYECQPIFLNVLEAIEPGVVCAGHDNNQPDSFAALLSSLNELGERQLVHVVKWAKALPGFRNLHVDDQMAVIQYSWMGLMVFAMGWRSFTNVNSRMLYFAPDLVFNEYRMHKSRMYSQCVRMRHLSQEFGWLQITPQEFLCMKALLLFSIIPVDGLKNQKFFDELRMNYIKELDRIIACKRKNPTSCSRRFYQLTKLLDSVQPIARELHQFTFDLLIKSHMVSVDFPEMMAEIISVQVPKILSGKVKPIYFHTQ

molecule.smiles | Ki / nM
O=c1cc(C(F)(F)F)c2cc3c(cc2[nH]1)OC[C@H](C(F)(F)F)N3CC(F)(F)F | 18
